All figures here come from patent US6713051B2.

# target-or-system: human PPARα (Homo sapiens, UniProt Q07869)
# Construct: The coding region of a human PPARα cDNA was inserted downstream of the CMV promoter; expressed in transfected cells; host or cells: Cos-7 cells, transient transfection (pcDNA3.1(−)-PPARα, pRSV-RXRα, 3xPPRE-TK-luc reporter, pRL-TK)
# method-notes: PPARα reporter gene assay (firefly luciferase, transiently transfected Cos-7 cells)
# Type: cell-based
# test-context: pass = activation greater than oleic acid at 100 μM, commonly >1.57 times vehicle control; 24 h treatment
measure: Pass at (lowest tested administration level at which the test material passed) (μm)
Field format: number, assumed μm, no unit text.

- compound: "CCCCCC[C@@H](O)C/C=C/CCCCCCCC(=O)O [Ricinolaidic acid, ricinolaidic acid]"
  measured-value: 10

Consider the compound CCCCCC=CCC=CCC=CC/C=C\CCCCCC(=O)O [cis-7,10,13,16 docosatetraenoic acid] . State its measured Pass at (lowest tested administration level at which the test material passed).
100

Give the measured Pass at (lowest tested administration level at which the test material passed) for CC/C=C/C/C=C/C/C=C/CCCCCCCC(=O)O [Linolenelaidic acid, linolenelaidic acid]
25

Query Pass at (lowest tested administration level at which the test material passed) for CCCCC/C=C\C/C=C\C/C=C\C/C=C\CCCC(=O)O [Arachidonic acid]
25

Answer with the recorded Pass at (lowest tested administration level at which the test material passed) of CCCCCCCC/C=C/CCCCCCCC(=O)O [Elaidic acid] only.
100

====

# target-or-system: human PPARα (Homo sapiens, UniProt Q07869)
# Construct: The coding region of a human PPARα cDNA was inserted downstream of the CMV promoter; expressed in transfected cells; host or cells: Cos-7 cells, transient transfection (pcDNA3.1(−)-PPARα, pRSV-RXRα, 3xPPRE-TK-luc reporter, pRL-TK)
# Sequence (Q07869 1-468): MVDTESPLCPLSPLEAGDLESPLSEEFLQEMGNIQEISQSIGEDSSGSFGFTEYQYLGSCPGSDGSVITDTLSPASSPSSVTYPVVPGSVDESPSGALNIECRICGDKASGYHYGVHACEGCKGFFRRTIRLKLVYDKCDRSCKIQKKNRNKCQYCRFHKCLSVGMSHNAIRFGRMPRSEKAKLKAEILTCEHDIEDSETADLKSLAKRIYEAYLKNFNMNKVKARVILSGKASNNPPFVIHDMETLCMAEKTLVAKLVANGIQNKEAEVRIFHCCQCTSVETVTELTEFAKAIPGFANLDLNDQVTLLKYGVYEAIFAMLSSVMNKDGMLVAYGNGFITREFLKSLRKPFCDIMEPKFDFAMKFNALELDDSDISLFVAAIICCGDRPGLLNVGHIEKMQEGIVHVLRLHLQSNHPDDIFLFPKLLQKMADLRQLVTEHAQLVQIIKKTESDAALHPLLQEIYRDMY
# Sequence (P19793 1-462 partner): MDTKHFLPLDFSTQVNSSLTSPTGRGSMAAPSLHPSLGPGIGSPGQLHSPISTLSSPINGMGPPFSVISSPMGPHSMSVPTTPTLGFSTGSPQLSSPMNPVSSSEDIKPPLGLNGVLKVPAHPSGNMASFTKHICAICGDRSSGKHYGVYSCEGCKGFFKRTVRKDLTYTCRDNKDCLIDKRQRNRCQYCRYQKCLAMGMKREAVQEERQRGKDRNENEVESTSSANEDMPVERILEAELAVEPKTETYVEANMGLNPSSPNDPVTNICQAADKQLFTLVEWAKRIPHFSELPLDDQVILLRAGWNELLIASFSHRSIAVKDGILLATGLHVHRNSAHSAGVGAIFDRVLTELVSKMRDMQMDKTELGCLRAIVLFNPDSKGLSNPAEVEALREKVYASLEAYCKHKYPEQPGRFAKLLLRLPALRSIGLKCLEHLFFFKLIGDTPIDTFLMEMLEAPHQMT
# method-notes: PPARα reporter gene assay (firefly luciferase, transiently transfected Cos-7 cells)
# Type: cell-based
# test-context: pass = activation greater than oleic acid at 100 μM, commonly >1.57 times vehicle control; 24 h treatment
Quick reference: Pass at (lowest tested administration level at which the test material passed) of the listed items.
// note: answer is a bare numeric in μm

Field: example entries. Status: answers known.
- molecule: "CCCC\\C=C/C=C/C=C\\CCCCCCCC(=O)O"
  measured-value: 25
- molecule: "CCCCCC/C=C\\CCCCCCCC(=O)O"
  measured-value: 50
- molecule: "CC/C=C\\C/C=C\\C/C=C\\C/C=C\\CCCCC(=O)O"
  measured-value: 25
- molecule: "CCCCC/C=C\\C/C=C\\CC/C=C\\CCCC(=O)O"
  measured-value: 10
- molecule: "CCCCCCCCCC/C=C/CCCCCC(=O)O [Trans-7-octadecenoic acid]"
  measured-value: 10

Give the reported Pass at (lowest tested administration level at which the test material passed) for this molecule. CCCCCCCC/C=C\CCCCCCCCCC(=O)O [cis-11 eicosenoic acid]
100

Write down Pass at (lowest tested administration level at which the test material passed) measured for item CCCCC/C=C\C/C=C\CC/C=C/CCCC(=O)O
10

Please list Pass at (lowest tested administration level at which the test material passed) recorded for the molecule CCCCCCCCCCCCCC/C=C\CCCC(=O)O [cis-5 eicosenoic acid]
10
